Taken from ChEMBL document CHEMBL1201862.

For each entry below, report its IC50 value.
# System Under Test: UniProt Q194T2
# Sequence (Q194T2 whole entry): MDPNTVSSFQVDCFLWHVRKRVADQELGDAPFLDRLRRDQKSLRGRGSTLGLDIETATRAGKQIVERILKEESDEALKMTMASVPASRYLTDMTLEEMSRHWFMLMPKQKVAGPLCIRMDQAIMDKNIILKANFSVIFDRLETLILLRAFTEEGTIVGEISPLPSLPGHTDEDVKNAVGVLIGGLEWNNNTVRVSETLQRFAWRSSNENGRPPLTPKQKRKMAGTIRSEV
# Assay type: functional, Influenza A virus (A/California/07/2009(H1N1))
Activity calls are given as the source filed them.

Write down IC50 measured for item COc1ccccc1NC(=O)CSc1ccc(-c2ccccn2)nn1
7.99 µM (active)

Write down IC50 measured for item Nc1c(S(=O)(=O)O)cc(NC(=O)c2ccccc2)c2c1C(=O)c1ccccc1C2=O
13.3 µM (active)

Write down IC50 measured for item COC(=O)c1ccccc1NC1=C/C(=N\S(=O)(=O)c2cccs2)c2ccccc2C1=O
5.16 µM (active)

Write down IC50 measured for item COc1cccc(NC(=O)CSc2nn3c(=O)c(C)nnc3s2)c1
11.3 µM (active)

Write down IC50 measured for item COc1cc(/C=C2\CCC/C(=C\c3ccc(O)c(OC)c3)C2=O)ccc1O
> 100 µM (active)

Write down IC50 measured for item COc1cc(/C=C2\SC(c3ccccc3)=NC2=O)cc(Cl)c1O
12.7 µM (active)

Write down IC50 measured for item CCN(CC)CCNc1ccc(C)c2sc3ccc(O)cc3c(=O)c12
19.7 µM (active)

Write down IC50 measured for item COCc1cc(CN2CCN(C)CC2)c(O)c2ncccc12
4.15 µM (active)

====

# System Under Test: Trace amine-associated receptor 1 (Homo sapiens, UniProt Q96RJ0)
# Sequence (Q96RJ0 whole entry): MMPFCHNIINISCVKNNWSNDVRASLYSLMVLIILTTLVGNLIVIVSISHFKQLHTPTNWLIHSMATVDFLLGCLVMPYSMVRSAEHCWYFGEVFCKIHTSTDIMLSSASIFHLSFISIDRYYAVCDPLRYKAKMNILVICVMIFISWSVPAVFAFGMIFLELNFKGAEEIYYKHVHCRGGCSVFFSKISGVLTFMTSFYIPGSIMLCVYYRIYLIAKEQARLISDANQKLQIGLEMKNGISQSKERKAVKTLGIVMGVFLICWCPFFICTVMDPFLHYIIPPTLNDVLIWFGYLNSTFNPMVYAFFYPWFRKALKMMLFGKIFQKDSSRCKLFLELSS
# Protocol Text: Fluorescence-based cell-based high throughput dose response assay to identify agonists of the human trace amine associated receptor 1 (TAAR1).
# Type: functional
Structures can show the parent of a compound that is named as a salt. Active and inactive are the calls of the source.
For each entry below, report its EC50 value.

Write down EC50 measured for item CNCC(C)c1ccccc1 (centres undefined)
598 nM (active)

Write down EC50 measured for item N[C@@H]1C[C@H]1c1ccccc1 [TRANYLCYPROMINE HYDROCHLORIDE]
611 nM (active)

Write down EC50 measured for item CCOc1cccc(-c2c(C(=O)N/N=C/c3ccc(C)o3)nnn2-c2nonc2N)c1
3780 nM (active)

Write down EC50 measured for item O=C(Nc1ccncc1)Nc1ccc(F)cc1
548 nM (active)

====

For each entry below, report its IC50 value.
# System Under Test: Nuclear receptor subfamily 0 group B member 1 (Homo sapiens);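 note: HEK293T cells transfected with SF-1 and DAX-1 plus StAR promoter luciferase reporter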
# Sequence (P51843 whole entry): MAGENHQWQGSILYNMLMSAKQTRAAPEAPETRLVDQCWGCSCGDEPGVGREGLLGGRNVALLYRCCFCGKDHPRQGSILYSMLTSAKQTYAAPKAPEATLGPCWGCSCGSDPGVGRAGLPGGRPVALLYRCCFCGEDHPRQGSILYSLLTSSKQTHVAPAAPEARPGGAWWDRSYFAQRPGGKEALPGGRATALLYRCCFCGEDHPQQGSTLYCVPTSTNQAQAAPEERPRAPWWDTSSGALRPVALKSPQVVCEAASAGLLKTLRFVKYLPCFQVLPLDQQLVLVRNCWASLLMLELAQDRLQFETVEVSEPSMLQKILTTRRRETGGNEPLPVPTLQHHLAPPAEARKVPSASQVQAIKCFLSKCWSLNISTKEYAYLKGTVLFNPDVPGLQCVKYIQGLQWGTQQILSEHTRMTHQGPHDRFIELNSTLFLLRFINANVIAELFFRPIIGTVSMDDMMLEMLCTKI
# Type: functional, cell-based
Active and inactive are the calls of the source.

Write down IC50 measured for item CN1CCN(C(=O)c2cc(COc3ccccc3)on2)[C@@H](c2ccccc2)C1
> 67.6 µM (inactive)

Write down IC50 measured for item COc1ccc(C(CNC(=O)c2ccc(Cl)c(NC(=O)c3cccs3)c2)N2CCCC2)cc1 (centres undefined)
> 67.5 µM (inactive)

Write down IC50 measured for item COc1cc(C(=O)c2cc3c(cc2C)OCO3)cc(OC)c1OC
> 67.5 µM (inactive)

Write down IC50 measured for item CC(=O)c1cccc(-c2ccnc3c2CC(C(=O)NCc2ccccc2)O3)c1 (centres undefined)
> 67.4 µM (inactive)
